Cited source: patent US10052296B2

- method_notes: Pharmacokinetics in rats after 15 min IV infusion
- protocol_conditions: male, rat, plasma, iv, Bioequivalent Range (80-125%) AUC, 15 min IV infusion, 80-125% of single-drug value
measured_quantity: AUC

Given item CC(=O)Nc1ccc(O)cc1 , the value recorded as its AUC is 5830 to 9110 ng·h/mL

----------
- method_notes: Pharmacokinetics in rats after 15 min IV infusion
- protocol_conditions: male, rat, plasma, iv, Bioequivalent Range (80-125%) Cmax, 15 min IV infusion, 80-125% of single-drug value
measured_quantity: Cmax

Given item CC(=O)Nc1ccc(O)cc1 [Acetaminophen] , the value recorded as its Cmax is 8110 to 12700 ng/mL
